measured_on: human CB2R (Homo sapiens, UniProt P34972)
Sequence (P34972 whole entry): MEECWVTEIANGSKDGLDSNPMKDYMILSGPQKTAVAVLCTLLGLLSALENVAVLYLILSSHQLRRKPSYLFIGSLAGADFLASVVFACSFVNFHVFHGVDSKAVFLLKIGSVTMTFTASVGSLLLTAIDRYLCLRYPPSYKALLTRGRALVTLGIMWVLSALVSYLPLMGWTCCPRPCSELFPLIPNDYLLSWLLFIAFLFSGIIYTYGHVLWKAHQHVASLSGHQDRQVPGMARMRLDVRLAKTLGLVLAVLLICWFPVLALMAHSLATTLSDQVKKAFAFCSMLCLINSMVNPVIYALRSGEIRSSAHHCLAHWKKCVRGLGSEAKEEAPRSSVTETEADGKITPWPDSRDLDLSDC
protocol_description: CB2R mediated modulation of cAMP synthesis
Type: cell-based
readout: EC50 (nM)
A number alone suffices; assume nM.

CCc1ccnc(NC(=O)[C@@H]2CCCN2c2ccc(Cl)cc2)c1	1.2

Incoming: Item `CC(C)(C)c1cc(NC(=O)[C@@H]2C[C@@H](O)CN2C2CCOCC2)no1` has what recorded EC50?
Outgoing: 363

Incoming: EC50 for `Cc1ccc(NC(=O)[C@@H]2CCC(=O)N2c2ccc(Cl)cc2)nc1` ?
Outgoing: 485

Incoming: Entry `CCc1sc(NC(=O)[C@@H]2CCCN2CC2CCOCC2)nc1-c1ccccc1` : reported EC50 = ?
Outgoing: 10.9

###

measured_on: human CB2R (Homo sapiens, UniProt P34972)
protocol_description: CB2R mediated modulation of cAMP synthesis
Format: cell-based
condition_details: CHO cells expressing human CB2R; inhibition of forskolin-stimulated cAMP synthesis; mean; read-out: CB2 CAMP @ EC50 nM (mean)
Simple rule here: EC50 less than 300 nM is fulfilled, otherwise not fulfilled.

These solved cases illustrate the format of a correct answer.
O=C(Nc1nc2cc(F)ccc2[nH]1)[C@@H]1CCCN1C1CCOCC1	not fulfilled
CCCc1cc(NC(=O)[C@@H]2C[C@@H](O)CN2CC2CCOCC2)on1	fulfilled
CC(C)(C)c1cc(NC(=O)[C@@H]2CCCN2c2ncccn2)on1	fulfilled
Cc1ccc(N2C(=O)CC[C@H]2C(=O)Nc2cc(C(C)(C)C)on2)cc1Cl	not fulfilled
COc1ccc(-c2nsc(NC(=O)[C@@H]3CCC(=O)N3c3ccc(C(F)(F)F)cc3)n2)cc1	fulfilled

Incoming: Regarding `CC(C)(C)OC(=O)CCN1CCC[C@H]1C(=O)Nc1cc(C(C)(C)C)no1` , kindly confirm whether its EC50 is beneath 300 nM.
Outgoing: fulfilled

Incoming: Please check: EC50 for `CC(C)(C)c1cc(NC(=O)[C@@H]2CCC(=O)N2c2ccc(C#N)c(F)c2)on1` , strictly under 300 nM or not?
Outgoing: fulfilled

Incoming: Identify whether the molecule CCC(C)c1cc(NC(=O)[C@@H]2CCC(=O)N2c2ccc(Cl)cc2)on1 (stereo partly drawn) records EC50 below 300 nM.
Outgoing: fulfilled

###

measured_on: human CB2R (Homo sapiens)
protocol_description: CB2R mediated modulation of cAMP synthesis
Assay type: cell-based
readout: pEC50
Scale note: pEC50 = -log10(concentration in M).

Take a look at these entries with their results.
O=C(Nc1nc(-c2ccccc2)ns1)[C@@H]1C[C@@H](O)CN1CC1CCOCC1	6.52
CCCc1cc(NC(=O)[C@@H]2CCC(=O)N2c2ccc(Cl)cc2)on1	6.58
CC(C)(C)c1cc(NC(=O)[C@@H]2C[C@@H](O)CN2c2ncc(C(F)(F)F)cc2Cl)no1	8.30
CC(C)(C)c1cc(NC(=O)[C@@H]2CCCN2c2ccc(C(F)(F)F)cn2)on1	10.64

Incoming: // map `CC(C)(C)CC(C)(C)NC(=O)[C@@H]1CCCN1c1ccc(Cl)cc1` to recorded pEC50 (system: human CB2R (Homo sapiens))
Outgoing: 7.60

Incoming: Recall the recorded pEC50 for `CCc1sc(NC(=O)[C@@H]2C[C@@H](O)CN2C2CCOCC2)nc1-c1ccccc1` with human CB2R (Homo sapiens) and state it.
Outgoing: 7.23

Incoming: So what pEC50 did `COCC(C)(C)c1cc(NC(=O)[C@@H]2CCC(=O)N2c2ccc(C(F)(F)F)cc2)no1` get with human CB2R (Homo sapiens)?
Outgoing: 7.82

Incoming: // fetch human CB2R (Homo sapiens) pEC50 for CC1CC(NC(=O)[C@@H]2C[C@@H](O)CN2CC2CCOCC2)CC(C)(C)C1 (stereo partly drawn)
Outgoing: 6.66

###

measured_on: human CB2R (Homo sapiens, UniProt P34972)
protocol_description: CB2R mediated modulation of cAMP synthesis
Format: cell-based
// reported pEC50 for each item listed
Lab note — pEC50 values are minus log10 of concentrations in M.

CC(C)(C)c1cc(NC(=O)[C@@H]2C[C@H](O)CN2C2CCOCC2)on1	7.23
CC(C)(C)c1cc(NC(=O)C2CCCN2c2ccc(Cl)cn2)no1 (stereo not shown)	9.44
CC(C)(C)c1cc(NC(=O)[C@@H]2C[C@@H](O)CN2C2CCCC2)on1	7.21
CC(C)(C)c1cc(NC(=O)[C@@H]2CCC(=O)N2c2ccc(Cl)c(F)c2)on1	7.85
CC(C)(C)Cc1cc(NC(=O)[C@@H]2CCCN2CC2CC2)on1	7.65
CC(C)(C)c1cc(NC(=O)[C@@H]2CCCN2CC2CCCOC2)on1 (stereo partly shown)	9.42

Now take the following compound into account.
Incoming: Fill in the blank: the reported pEC50 of `CC(C)(C)c1cc(NC(=O)[C@@H]2CCCN2CC2CCOCC2)on1` is ____.
Outgoing: 9.36
